Data provenance: PubChem BioAssay AID256

Tested on: CD2F1 mice, L1210 leukemia ip, survival T/C
Assay: NCI In Vivo Anticancer Drug Screen. Data for tumor model L1210 Leukemia (intraperitoneal) in CD2F1 (CDF1) mice
Settings: endpoint: mean survival time; dose: 200.0 mg/kg/injection; schedule: Q01DX009 (ip); vehicle: other; higher = longer survival
Toxic doses and inconclusive results are not listed.
Recorded measurements of T/C, one per entry

Answered cases to consult:
In [3]: df
Out[3]:
                                   molecule  readout_name          reported
0               CC1(C)C(=O)C(Br)=Cc2ccccc21           T/C  105 % of control
1  COc1cc(C(O)C(Cl)(Cl)Cl)ccc1O (centres undefined)           T/C  105 % of control
2            CCOC(=O)CC(=O)COC(=O)CC(=O)OCC           T/C   97 % of control
3  O=C(OC1C=CCC=C1)c1cc([N+](=O)[O-])cc([N+](=O)[O-])c1           T/C   95 % of control
4  O=C(N/N=C/c1cc2c(cc1[N+](=O)[O-])OCO2)c1ccccc1           T/C   94 % of control
5  CC1(C)CC2(OC2c2cccc(Cl)c2)C(=O)c2ccccc21 (centres undefined)           T/C   94 % of control
6  O=[N+]([O-])c1ccc(N/N=C(/C(=N/Nc2ccc([N+](=O)[O-])cc2)c2ccccc2)c2ccccc2)cc1           T/C   93 % of control
7                  O=c1cc(CO)[nH]c(=O)[nH]1           T/C   97 % of control

From here, focus on the item given below.
CC(=O)OCC1OC2OC(C)(OC(C)(C)C)OC2C(OC(C)=O)C1OC(C)=O (centres undefined) has a reported T/C of 98 % of control

###

System: CD2F1 mice, L1210 leukemia ip, survival T/C
Assay: NCI In Vivo Anticancer Drug Screen. Data for tumor model L1210 Leukemia (intraperitoneal) in CD2F1 (CDF1) mice
Conditions: endpoint: mean survival time; dose: 12.5 mg/kg/injection; schedule: Q01DX005 (ip); vehicle: water; higher = longer survival
Inconclusive results and toxic doses are left out.
Listed compounds paired with reported T/C

Please review the entries below; each comes with its answer.
>>> df
                                   compound  readout_name          reported
0  N=c1c2ccn(C3OC(CO)C(O)C3O)c2ncn1N (configuration not stated)           T/C  115 % of control
1  Cn1c(-[n+]2ccccc2)nc2c1c(=O)[nH]c(=O)n2C           T/C  100 % of control
2  NNC(=O)c1ncn(C2OC(CO)C(O)C2O)c1C(=O)NN (configuration not stated)           T/C  103 % of control
3  Cc1cc(C(O)CNC(C)CCn2cnc3c2c(=O)n(C)c(=O)n3C)ccc1O (configuration not stated)           T/C   93 % of control
4  NC(=O)c1n[nH]c(C2OC(COP(=O)(O)O)C(O)C2O)n1 (configuration not stated)           T/C  100 % of control
5              Cn1ncc2c(N)nc(-c3ccccn3)nc21           T/C   97 % of control

Continue with the compound presented below.
So, CC(=O)OCC1OC(n2ncc3c(Cl)ncnc32)C(OC(C)=O)C1OC(C)=O (configuration not stated) ? Its T/C was 93 % of control

###

Tested on: CD2F1 mice, L1210 leukemia ip, survival T/C
Test: NCI In Vivo Anticancer Drug Screen. Data for tumor model L1210 Leukemia (intraperitoneal) in CD2F1 (CDF1) mice
Conditions: endpoint: median survival time; dose: 100.0 mg/kg/injection; schedule: Q01DX005 (ip); vehicle: saline with Tween-80; higher = longer survival
Inconclusive results and toxic doses are left out.
Each record here notes measured T/C.

>>> print(df.to_string())
                                   compound  readout_name          reported
0  CC(=O)OCC1OC(n2ccc(-n3cncn3)nc2=O)CC1N=[N+]=[N-] (centres undefined)           T/C   94 % of control
1  N#Cc1cnn2ccn(C3OC(COC(=O)c4ccccc4)C(OC(=O)c4ccccc4)C3OC(=O)c3ccccc3)c12 (centres undefined)           T/C   98 % of control
2                CSc1nc(Cl)c2cc(Cl)[nH]c2n1           T/C  101 % of control

# context switch: different compound, same T/C
Tested on CD2F1 mice, L1210 leukemia ip, survival T/C: CSc1nc(NC2OCC(O)C(O)C2O)c(Br)c(=O)n1C (centres undefined) . Observed T/C: 102 % of control

###

# T/C annotations
System: CD2F1 mice, L1210 leukemia ip, survival T/C
Test: NCI In Vivo Anticancer Drug Screen. Data for tumor model L1210 Leukemia (intraperitoneal) in CD2F1 (CDF1) mice
Conditions: endpoint: mean survival time; dose: 100.0 mg/kg/injection; schedule: Q01DX009 (ip); vehicle: saline with Tween-80; higher = longer survival
Inconclusive results and toxic doses are left out.

Consider the worked cases shown below.
In [3]: df
Out[3]:
                                   compound  readout_name          reported
0  CN(C)C(=O)C(=O)C1C=Cc2ccccc21 (centres undefined)           T/C   98 % of control
1  COC(=O)C1C2CC(OS(=O)(=O)c3ccc(C)cc3)C(C2)C1C(=O)OC (centres undefined)           T/C   98 % of control
2               COc1ccc2[nH]c(=O)oc(=O)c2c1           T/C  104 % of control
3  C=CCOCC(COCC=C)OC1CCS(=O)(=O)C1 (centres undefined)           T/C   97 % of control
4  COC(=O)C(NC(=O)CCNC(=O)OCc1ccccc1)C(C)C (centres undefined)           T/C   95 % of control
5  COc1ccc(C(C(N)=O)N2CCCC2)cc1 (centres undefined)           T/C   89 % of control
6  COc1ccc2c(c1OC)C(=O)OC2c1cc(Br)c(O)c(C2OC(=O)c3c2ccc(OC)c3OC)c1 (centres undefined)           T/C  101 % of control
7          CCN(C(=O)Nc1ccc(Cl)cc1)c1ccccc1C           T/C   97 % of control
8  Clc1cc(Cl)cc(Nc2nc(C(Cl)(Cl)Cl)nc(C(Cl)(Cl)Cl)n2)c1           T/C   95 % of control
9  O=C1CCCC2C3CC(CN12)C1CCCCN1C3 (centres undefined)           T/C  100 % of control

What the record says about `CCCCOS(=O)(=O)c1ccc(Cl)c([N+](=O)[O-])c1` : T/C is 91 % of control

In plain terms, `COc1ccc2c(O)c(-c3ccc(OC)c(OC)c3)c(=O)oc2c1` has a documented T/C of 106 % of control

Measured T/C of `Clc1ccc(NC(Nc2ccc(Cl)cc2Cl)C(Cl)(Cl)Cl)c(Cl)c1` : 101 % of control

Entry `COc1ccccc1C(O)(c1ccccc1OC)c1c(OC)cccc1OC` — recorded T/C = 97 % of control

Field T/C (entry `O=C1c2ccccc2C(=O)N1CCCCCCCCCCN1C(=O)c2ccccc2C1=O` ) reads 92 % of control

// CN=S(=O)(OCCCCCOS(=O)(=NC)c1ccc(C)cc1)c1ccc(C)cc1 (centres undefined) : T/C value = 101 % of control

// `N#CC(C#N)=C1c2ccccc2C(=O)c2ccccc21` : T/C value = 90 % of control

Notebook: `C/C=C/CC1CCCCC1` , T/C read as 100 % of control

###

Test system: CD2F1 mice, L1210 leukemia ip, survival T/C
Test: NCI In Vivo Anticancer Drug Screen. Data for tumor model L1210 Leukemia (intraperitoneal) in CD2F1 (CDF1) mice
Conditions: endpoint: mean survival time; dose: 25.0 mg/kg/injection; schedule: Q01DX009 (ip); vehicle: water; higher = longer survival
Protocol: The antitumor activity of compounds was measured in mice bearing transplantable tumors. Survival or tumor size were measured and the results are expressed as the measurement made in the treated group (T) divided by the measurement made in the vehicle treated control group (C). The tumor model used in this assay is L1210 Leukemia (intraperitoneal) in CD2F1 (CDF1) mice
Toxic doses and inconclusive results are not listed.
Readout name: T/C

Here are 5 compounds together with their reported answers.
>>> print(df.to_string())
                                   compound          reported
0                         COc1cc2ccncc2cc1O   96 % of control
1                NNC(=O)c1ccc(-c2ccccc2)cc1  108 % of control
2  CCN(CC)CCCC(C)NS(=O)(=O)c1cccc2c(N(C)C)cccc12 (configuration not stated)  102 % of control
3  COC1=CC23CCCN2CCc2cc4c(cc2C3C1O)OCO4 (configuration not stated)  101 % of control
4                               Cc1cccnc1Br  103 % of control

// CS(=O)CSCC(N)C(=O)O (configuration not stated) : T/C value = 100 % of control

Given item `CNC(=O)c1n[nH]c(C)c1N` , the value recorded as its T/C is 97 % of control
